# assay-remarks: folding stability dG unfold from chymotrypsin proteolysis; higher = more stable
Kindly return class 1 if reported folding stability dG unfold is no lower than 3 kcal/mol; return class 0 if it is lower.

residues | class
MRFEFPLEDGGRVEVEMRPLPDGPVVLDVKITLPNGEEITIPFVFPREEFPDMDMEEIARRVVEEAIRLAKS [r1_92_TrMRF] | class 1
SAGGSAGGSAGGMVVRVTKNGTSTEIIVDSEEEAKELLKPLFPDDSEVEIEFVSEEELSSAGGSAGGSAGGS [r10_1167_JUSTAS] | class 0
SAGGKKVIVIEGLTEEEILEKIKEEFPEPVEVIIRRPDGYVVKITVDAKTREIKKVEVVKVPPPEKPSAGGS [r8_225_TrROS_Hall] | class 0
SAGGSAPREIPIMIRVPGYQIEIHKITVPPNGMVQIGLEWRNPGGDKPVTINIWLPLNEIKDFIKASAGGSA [r15_56_TrROS] | class 1
SAGGSAGGSAGGPELPEDVPVVEVVHLDLPFSPDEPEVVEEAEAKAAALEEGGALAEIRRSAGGSAGGSAGG [r11_519_JUSTAS] | class 0
SAGGSAGGSASSMVTVTVSVSPDEGDEEVAKEIAKELGRPDAKVTKITYDPATGTLTITLVDSAGGSAGGSA [r18_481_JUSTAS] | class 0
SAGGSAGGYIMIPPGAEIDVNPENGKIKIKFRNPDNGEEEKITFDVPPGVKIHMWDNWIMIELPSAGGSAGG [r6_804_TrROS] | class 1
SAKILEIKPLPDGTVIIKIPVDAPEDVDPKEVKILVKSEEGVKEAEILEDGTIDIVVENVKDVKIEIFVESA [r9_722_TrMRF] | class 0
SAGGSAGGSAAKPIPFTITSVSVPTAPDGKKYAVVEISFPGSGAKAWAVYDIDDPYIKEAGSAGGSAGGSAG [r3_57_TrMRF] | class 0
SAGGMPIILLEEKKLPNGEPVYRITLLERDPNDGSWRPIEEDELKTKEEAEERAKAIAEKRGVELLKSAGGS [r16_512_JUSTAS] | class 0
SAGGSAGGSAGGAAEVLEALRAARGQPVVVLVKDPAGNEREVTVPGDTARFPGWTVVELLSAGGSAGGSAGG [r7_998_JUSTAS] | class 0
SAGGSAGGSMKITVEKDENGNYRVTVTLTVNGKEIKLTVTVPKNTTPEEVKKKAEELAKELLKSAGGSAGGS [r12_69_TrROS_Hall] | class 1
SAMMYLIRVTITVKNKETGEEKEIEVEILIEKEEGELTEEEIEELARKLAEELGLEVEEIKIEIEPLPESAG [r14_278_TrROS_Hall] | class 1

====

# assay-remarks: folding stability dG unfold from trypsin proteolysis; higher = more stable
folding stability dG unfold: recorded values

residues | folding stability dG unfold
SAGGSAGGSIEIDHDRDPGTNRYTATVEIPDPDGKGLEVEVQMNGDPEDAAKTAAKTVLEEFNSAGGSAGGS [r20_33_TrROS] | 0.07 kcal/mol
SAGGSAGGSAGGLLEIELPSRRILVELKLELKDGKLVKLEIKVKYEGREPEPLTSPEYKSAGGSAGGSAGGS [r10_1043_TrMRF] | 1.71 kcal/mol
SKIRIIRPERSLEIDLPKSARIEFDPETRRIYFINPDGERLEFPLGPNAVIIPGDDEITIIDPPASPENPSA [r9_653_TrMRF] | 2.21 kcal/mol
SAGGEGKEDKKIKVLFINVPVDKPDLLLKLAKEIIEKKEYDIIIVDHPENYKALKEAFPEYDIPIILGSAGG [r13_353_TrMRF] | 2.04 kcal/mol

====

# assay-remarks: folding stability dG unfold from chymotrypsin proteolysis; higher = more stable
Kindly return 1 if reported folding stability dG unfold is no lower than 1 kcal/mol; return -1 if it is lower.

residues | class
SAGGSSPEELAEKAINEAMEKFGFKEISEIKIQKEDDGVRITIRMPNNGYTIEIDYEDGKITEIQPWSAGGS [r16_171_TrROS] | -1
MSEEERKKAAEERSKPPPVEIKVEVEVVKNEDGEEYLRVRVTVVDPETGEVIEEREFVVRREDLEELLKALS [r1_415_TrROS_Hall] | 1
SAGGSAGGSAGGMPTTATITLPGGETLTVPVPVDPSTGTVSEEEIRALVGPEFEFEILGGSAGGSAGGSAGG [r7_492_JUSTAS] | 1
SASSSFTLPGLKLEVETQKVSTFPTPDGTPVVLYETTIHFLEVPESLRAEGKPLSLESSVKKLKVVPLPSAG [r14_942_JUSTAS] | -1
SAGGSAGGSAGGEEKEVYLVRFRRPDGSEVTVVAPWEDLEEIVKSLPEAVEVEVEKAPLSAGGSAGGSAGGS [r10_437_TrMRF] | 1
SEALEKAAEAGVKTIYVYVKPGDLEEIKRLKALDVKIVLYATEEIPPEAFEALPGVKVEKVEWISPEELPSA [r9_671_TrMRF] | 1
SAGMPLYRIRVHPDIPDRIEITEVDAEDLPPGAVLKIRFRETGETVEVPLSDLDELLALPGIEEVELVSAGG [r19_302_TrROS_Hall] | 1
SAGGSAGGSAGTVIRVRDKNGKIVEISLEEAAELLGIPPSELTLEDIVKAFAEKVDSIEILSSAGGSAGGSA [r18_403_TrMRF] | 1
SAGKPEWKLVETIEVTIEVPPGVTVEEIEKKLLEALKEKGIKEVKIEVTYDKENKTITVRVEVLVKKEKSAG [r5_924_TrROS_Hall] | 1
SAGGSAGGSAGGPPVTLLVVVRNEDGSLYLVRVEFDLETNEVKVEVFTLDDLKNLPEELSAGGSAGGSAGGS [r10_1077_TrROS_Hall] | 1
SAGGLRVHPNSLYIWIPPGGNFDDFVKEIAQELQKKGKPMEIKVEPFPDGWYWIRIKVDGKDIEIWMSAGGS [r16_771_TrROS] | 1
SAGGPNVPIRIRVTIERQDPDGEPKDFEFPIEYPMPPDDPEQAKEQIEELAESIAEKHGYKVEIEIEPSAGG [r13_853_TrROS] | -1
SAGGSAGPMVKTTEFSAVYTGPGGVSRGPVAVTVEIPPGDPSNPVLTVTLPDGTPRTLAAGEVEAASAGGSA [r15_954_JUSTAS] | -1
SAGGSAGGSAGGMLFHFEIKDPNSDKEYEVLVEKPPSGKVLVTILKDNKEEVKVLPLELFSAGGSAGGSAGG [r11_952_JUSTAS] | -1
SAGMDEYIRELIEKLPSENPSTSPITYRDKNIEAVTYYPSTNTTTFHFPGGEVISASPSTSIEEILKELSAG [r14_59_JUSTAS] | -1
SAGGSAGGSAGGSAVEVDPNGGVTRTRYPGGAVRLETVSPTPDGSLATRTEEVELPGLASAGGSAGGSAGGS [r4_248_JUSTAS] | -1
SEKPPKVKIVSVEYNPETGTVTITVEVEPGQKVRIFVRNSDGSVQEIDLESKTITINLPPGAEIVRIEVLSA [r9_113_TrROS_Hall] | 1
SAKAELEIKFPGWKVTVEIEDVDPKNDMVKLKAFFRNGWVFTQTVNPDDGKIEIPIIPVKPDPDGKWKFSAG [r14_466_TrROS] | 1
SAGGSAGGSADELLDKLLNHKWLRDAMEKAPPGMEEIDIELPDGGKIRIRRTPNGGFRLEPSAGGSAGGSAG [r3_124_TrROS] | 1
SRRLITIEITVTLPGNPEVTLSKTLKLPTEDVEEAIEKAKKEFKEEFGIPEDVPVKIEVTVSTSDGDPSLQS [r1_149_JUSTAS] | 1
SAGGSAGGSAGGSPLVIKVDGPAEKLIEEIKKLFPNAKVLSIETHPDGGVTLVVEKIDESAGGSAGGSAGGS [r4_95_TrMRF] | 1
SAGGSAGGSGVSSVRPVALPGGRVLVLEYFSSTGKVRVTTLTVGDGRPARAESVTPVTPESILSAGGSAGGS [r12_961_JUSTAS] | -1
SAGGMPTTSSSAVKLDGGSDSVTTTTLPDGSRVVYIVSSDGKVYKATVTGGTTTWTEVKTVPPAELSSAGGS [r16_48_JUSTAS] | 1
SAGGGGSTPVSSYSYPLPDGSTATITISSKNPDSDIYSFTVTLSDGTTVPLDVPLSESVEEAIARVLTSAGG [r13_470_JUSTAS] | 1
SLDKARDILREHGMEPTSIDVVEDGWVKVTWEYPGNKVEIFIPEDGNIMIEFRNPNNGQRVERTIPVDDVSA [r9_2_TrROS] | -1
SAGGSPDEAVPLPVPAKITLPGGAEFTVEEAVVLPNGEVLVKATLISPYPDPREAPFVVPLELLDISSAGGS [r16_498_TrMRF] | -1
SAGGSSYSVAQSPGPARLYSVPQPDGRVVEVDVEELPGGLLRVRVPDDPVPRLFPASLSLADIVSLSAGGSA [r2_338_JUSTAS] | -1

Where do the numbers come from? From the supplement of paper PMC12764529.
